- method description: Pharmacokinetics of omacetaxine in orthotopic glioblastoma PDX and naïve NOD/SCID mice (LC-MS/MS of plasma, brain, liver)
- Type: in vivo, mouse
- protocol conditions: female, NOD/SCID, mouse, liver, sc, 1.5 mg/kg, GS607-PDX, 60 min, single s.c. dose 1.5 mg/kg, n = 4; read-out: [Liver] ± SD
measured quantity: concentration at 60 min (ng/g)
Write the answer as a number in ng/g, unit excluded.

IN: Any idea what its concentration at 60 min is? The compound is COC(=O)C[C@](O)(CCCC(C)(C)O)C(=O)O[C@@H]1C(OC)=C[C@]23CCCN2CCc2cc4c(cc2[C@H]13)OCO4 [OMA, Omacetaxine mepesuccinate]
OUT: 1650

----------
- method description: Pharmacokinetics of omacetaxine in orthotopic glioblastoma PDX and naïve NOD/SCID mice (LC-MS/MS of plasma, brain, liver)
- Format: in vivo, mouse
- protocol conditions: female, NOD/SCID, mouse, brain, sc, 1.5 mg/kg, GBM8 PDX, 60 min, single s.c. dose 1.5 mg/kg; read-out: [Brain]/[Plasma] Ratio ± SD
measured quantity: Kp at 60 min
Form: value (number only, do not type unit).

IN: Any idea what its Kp at 60 min is? The compound is COC(=O)C[C@](O)(CCCC(C)(C)O)C(=O)O[C@@H]1C(OC)=C[C@]23CCCN2CCc2cc4c(cc2[C@H]13)OCO4 [OMA, Omacetaxine mepesuccinate]
OUT: 0.11

----------
- method description: Pharmacokinetics of omacetaxine in orthotopic glioblastoma PDX and naïve NOD/SCID mice (LC-MS/MS of plasma, brain, liver)
- Type: in vivo, mouse
- protocol conditions: female, NOD/SCID, mouse, brain, sc, 1.5 mg/kg, GS607-PDX, 60 min, single s.c. dose 1.5 mg/kg, n = 2 blood samples; read-out: [Brain]/[Plasma] Ratio ± SD
measured quantity: Kp at 60 min
Form: value (number only, do not type unit).

IN: Any idea what its Kp at 60 min is? The compound is COC(=O)C[C@](O)(CCCC(C)(C)O)C(=O)O[C@@H]1C(OC)=C[C@]23CCCN2CCc2cc4c(cc2[C@H]13)OCO4 [OMA, Omacetaxine mepesuccinate]
OUT: 0.23

----------
- method description: Pharmacokinetics of omacetaxine in orthotopic glioblastoma PDX and naïve NOD/SCID mice (LC-MS/MS of plasma, brain, liver)
- Assay type: in vivo, mouse
- protocol conditions: female, NOD/SCID, mouse, brain, sc, 1.5 mg/kg, GS832-PDX, 240 min, single s.c. dose 1.5 mg/kg; read-out: [Brain]/[Plasma] Ratio ± SD
measured quantity: Kp at 240 min
Form: value (number only, do not type unit).

IN: Any idea what its Kp at 240 min is? The compound is COC(=O)C[C@](O)(CCCC(C)(C)O)C(=O)O[C@@H]1C(OC)=C[C@]23CCCN2CCc2cc4c(cc2[C@H]13)OCO4 [OMA, Omacetaxine mepesuccinate]
OUT: 0.5

----------
- method description: Pharmacokinetics of omacetaxine in orthotopic glioblastoma PDX and naïve NOD/SCID mice (LC-MS/MS of plasma, brain, liver)
- Assay type: in vivo, mouse
- protocol conditions: female, NOD/SCID, mouse, brain tumor, sc, 1.5 mg/kg, GBM8 PDX, 60 min, single s.c. dose 1.5 mg/kg; read-out: measured brain tumor concentration expressed
- Experimental: An amount of 10 μL medium samples was vortex-mixed with 30 μL of acetonitrile: formic acid (100:1 v/v) containing 100 nM RO-3306 Internal Standard). After centrifugation, the supernatant was 5-fold diluted in water. OMA concentrations were measured using an LC-MS/MS system that consisted of an UltiMate 3000 LC System (Dionex, Sunnyvale, CA, USA) and an API 4000 mass spectrometer (Sciex, Framingham, MA, USA). […]
measured quantity: concentration at 60 min

IN: Any idea what its concentration at 60 min is? The molecule is COC(=O)C[C@](O)(CCCC(C)(C)O)C(=O)O[C@@H]1C(OC)=C[C@]23CCCN2CCc2cc4c(cc2[C@H]13)OCO4 [OMA, Omacetaxine mepesuccinate]
OUT: 82.5 nM

----------
- method description: Pharmacokinetics of omacetaxine in orthotopic glioblastoma PDX and naïve NOD/SCID mice (LC-MS/MS of plasma, brain, liver)
- Type: in vivo, mouse
- protocol conditions: female, NOD/SCID, mouse, brain, right hemisphere (tumor bearing), sc, 1.5 mg/kg, GS607-PDX, 60 min, single s.c. dose 1.5 mg/kg, n = 4; read-out: [Brain] ± SD, right hemisphere (tumor bearing)
measured quantity: concentration at 60 min (ng/g)
Write the answer as a number in ng/g, unit excluded.

IN: Any idea what its concentration at 60 min is? The molecule is COC(=O)C[C@](O)(CCCC(C)(C)O)C(=O)O[C@@H]1C(OC)=C[C@]23CCCN2CCc2cc4c(cc2[C@H]13)OCO4 [OMA, Omacetaxine mepesuccinate]
OUT: 21

----------
- method description: Pharmacokinetics of omacetaxine in orthotopic glioblastoma PDX and naïve NOD/SCID mice (LC-MS/MS of plasma, brain, liver)
- Format: in vivo, mouse
- protocol conditions: female, NOD/SCID, mouse, plasma, sc, 1.5 mg/kg, GS832-PDX NOD/SCID mice, single s.c. dose 1.5 mg/kg, 15 min (Table 1); read-out: [Plasma] ± SD
measured quantity: concentration at 15 min (ng/mL)
Write the answer as a number in ng/mL, unit excluded.

IN: Any idea what its concentration at 15 min is? The compound is COC(=O)C[C@](O)(CCCC(C)(C)O)C(=O)O[C@@H]1C(OC)=C[C@]23CCCN2CCc2cc4c(cc2[C@H]13)OCO4 [OMA, Omacetaxine mepesuccinate]
OUT: 396

----------
- method description: Pharmacokinetics of omacetaxine in orthotopic glioblastoma PDX and naïve NOD/SCID mice (LC-MS/MS of plasma, brain, liver)
- Type: in vivo, mouse
- protocol conditions: female, NOD/SCID, mouse, plasma, sc, 1.5 mg/kg, GS832-PDX NOD/SCID mice, single s.c. dose 1.5 mg/kg, 240 min (Table 1); read-out: [Plasma] ± SD
measured quantity: concentration at 240 min
Note: state the figure and append the unit.

IN: Any idea what its concentration at 240 min is? The molecule is COC(=O)C[C@](O)(CCCC(C)(C)O)C(=O)O[C@@H]1C(OC)=C[C@]23CCCN2CCc2cc4c(cc2[C@H]13)OCO4 [OMA, Omacetaxine mepesuccinate]
OUT: 24 ng/mL

----------
- method description: Pharmacokinetics of omacetaxine in orthotopic glioblastoma PDX and naïve NOD/SCID mice (LC-MS/MS of plasma, brain, liver)
- Type: in vivo, mouse
- protocol conditions: female, NOD/SCID, mouse, liver, sc, 1.5 mg/kg, GS832-PDX, 240 min, single s.c. dose 1.5 mg/kg, n = 5; read-out: [Liver] ± SD
measured quantity: concentration at 240 min
Note: state the figure and append the unit.

IN: Any idea what its concentration at 240 min is? The compound is COC(=O)C[C@](O)(CCCC(C)(C)O)C(=O)O[C@@H]1C(OC)=C[C@]23CCCN2CCc2cc4c(cc2[C@H]13)OCO4 [OMA, Omacetaxine mepesuccinate]
OUT: 190 ng/g

----------
- method description: Pharmacokinetics of omacetaxine in orthotopic glioblastoma PDX and naïve NOD/SCID mice (LC-MS/MS of plasma, brain, liver)
- Type: in vivo, mouse
- protocol conditions: female, NOD/SCID, mouse, brain, right hemisphere (tumor bearing), sc, 1.5 mg/kg, GBM8 PDX, 60 min, single s.c. dose 1.5 mg/kg, n = 6; read-out: [Brain] ± SD, right hemisphere (tumor bearing)
measured quantity: concentration at 60 min (ng/g)
Write the answer as a number in ng/g, unit excluded.

IN: Any idea what its concentration at 60 min is? The compound is COC(=O)C[C@](O)(CCCC(C)(C)O)C(=O)O[C@@H]1C(OC)=C[C@]23CCCN2CCc2cc4c(cc2[C@H]13)OCO4 [OMA, Omacetaxine mepesuccinate]
OUT: 45

----------
- method description: Pharmacokinetics of omacetaxine in orthotopic glioblastoma PDX and naïve NOD/SCID mice (LC-MS/MS of plasma, brain, liver)
- Assay type: in vivo, mouse
- protocol conditions: female, NOD/SCID, mouse, brain tumor, sc, 1.5 mg/kg, GS832-PDX, 60 min, single s.c. dose 1.5 mg/kg; read-out: measured brain tumor concentration expressed
measured quantity: concentration at 60 min (nM)
Write the answer as a number in nM, unit excluded.

IN: Any idea what its concentration at 60 min is? The molecule is COC(=O)C[C@](O)(CCCC(C)(C)O)C(=O)O[C@@H]1C(OC)=C[C@]23CCCN2CCc2cc4c(cc2[C@H]13)OCO4 [OMA, Omacetaxine mepesuccinate]
OUT: 33

----------
- method description: Pharmacokinetics of omacetaxine in orthotopic glioblastoma PDX and naïve NOD/SCID mice (LC-MS/MS of plasma, brain, liver)
- Assay type: in vivo, mouse
- protocol conditions: female, NOD/SCID, mouse, liver, sc, 1.5 mg/kg, GS832-PDX, 120 min, single s.c. dose 1.5 mg/kg, n = 5; read-out: [Liver] ± SD
measured quantity: concentration at 120 min (ng/g)
Write the answer as a number in ng/g, unit excluded.

IN: Any idea what its concentration at 120 min is? The molecule is COC(=O)C[C@](O)(CCCC(C)(C)O)C(=O)O[C@@H]1C(OC)=C[C@]23CCCN2CCc2cc4c(cc2[C@H]13)OCO4 [OMA, Omacetaxine mepesuccinate]
OUT: 338

meta.source: paper PMC11678797
